Record form. Attribute: GI50. Fill in for each entry.
# Test system: RPMI-8226
# assayDetails: NCI tumour cell line growth inhibition, 48 h
Active and inactive are the calls of the source. Rule as the data show it: active = GI50 up to about 1.1 µM and inactive = higher.

Problem: What value of measured GI50 is listed for Cc1ccc(C(=O)/C=C/c2ccccc2O)c(C)c1 ?
Result: 18.7 µM (inactive)

Problem: What value of measured GI50 is listed for O=C1C(Cl)C(c2cc3cc(Br)ccc3nc2Cl)N1c1ccc(F)c(Cl)c1 (stereo not drawn) ?
Result: 1.36 µM (inactive)

Problem: What value of measured GI50 is listed for Cc1ccc(S(=O)(=O)N(CCN2C(=O)c3ccccc3C2=O)c2cc3c4c(c2)Oc2cc(N(CCN5C(=O)c6ccccc6C5=O)S(=O)(=O)c5ccc(C)cc5)cc5c2C4(C)c2c(cc(N(CCN4C(=O)c6ccccc6C4=O)S(=O)(=O)c4ccc(C)cc4)cc2O5)O3)cc1 ?
Result: > 100 µM (inactive)

* * *

# Tested on: KM-20L2
# assayDetails: NCI tumour cell line growth inhibition, 48 h
Calls of active or inactive are those of the source. Rule as the data show it: active = GI50 up to about 1.1 µM and inactive = higher.
Assign a class; possible classes are 1.0 (active), 0.0 (inactive)

Problem: Which outcome was entered for the compound COC(=O)n1c(CBr)c(Br)c2ccccc21 in this test?
Result: 0.0

Problem: Which outcome was entered for the compound COc1cccc(SSc2cccc(OC)c2C(=O)O)c1C(=O)O in this test?
Result: 0.0

Problem: Which outcome was entered for the compound COC(=O)C1C(O)C(C)C(O)C(C)(O)/C=C\C=C(C)C(=O)Nc2c(C)c(OC(C)=O)c3c(c2O)C(=O)C(C)=C2OCOC(=C23)C(C)=CC(C)(O)C(O)C(C)C1OC(C)=O (stereo unspecified) in this test?
Result: 0.0

Problem: Which outcome was entered for the compound CN(c1ccccc1)C(c1ccccc1)C(O)c1ccccc1 (stereo unspecified) in this test?
Result: 0.0

Problem: Which outcome was entered for the compound CSCC1CC(c2ccc(Cl)cc2)=NO1 (stereo unspecified) in this test?
Result: 0.0

Problem: Which outcome was entered for the compound CCCCCCCCCCCCCCCCCC(=O)OCC(C[As](=O)(O)O)OC(=O)CCCCCCCCCCCCCCCCC (stereo unspecified) in this test?
Result: 0.0

Problem: Which outcome was entered for the compound CC12C3CC4C5CC(C(C53)[C@@H]1NCc1ccccc1)C42 (stereo partly specified) in this test?
Result: 0.0

Problem: Which outcome was entered for the compound O=C1C2C3C=C4c5ccccc5N(c5ccccc5)C4(C2C(=O)N1Cc1ccccc1)C1C(=O)N(Cc2ccccc2)C(=O)C31 (stereo unspecified) in this test?
Result: 0.0

Problem: Which outcome was entered for the compound O=C1NC(=O)C(CCC(=O)c2ccc3ccccc3c2)C(=O)N1 in this test?
Result: 0.0

Problem: Which outcome was entered for the compound CCC(C)C(=O)O[C@H]1C(=O)O[C@@H]2C[C@H]3C(C)=CC(=O)[C@@H](O)[C@]3(C)[C@H]3[C@@H](O)[C@H](O)[C@@]4(C)OC[C@]32[C@@H]14 (stereo partly specified) in this test?
Result: 1.0

Problem: Which outcome was entered for the compound O=C1Nc2nc3ccccc3n2N=C2CCCC12 (stereo unspecified) in this test?
Result: 0.0

Problem: Which outcome was entered for the compound O=C(CC(=O)C(F)(F)F)c1csc2ccccc12 in this test?
Result: 0.0

Problem: Which outcome was entered for the compound O=CN/C=C/c1cc(O)ccc1O in this test?
Result: 0.0

Problem: Which outcome was entered for the compound N/N=C(\C(=O)Nc1c(Cl)cc([N+](=O)[O-])cc1Cl)C(c1cnc2ccc([N+](=O)[O-])cc2n1)[N+](=O)[O-] (stereo unspecified) in this test?
Result: 0.0

Problem: Which outcome was entered for the compound CC1O[C@@H]2CCCCC(=O)[C@]2(C)[C@H]1C (stereo partly specified) in this test?
Result: 0.0

Problem: Which outcome was entered for the compound C=C(CS(=O)(=O)c1ccccc1)[P+](c1ccccc1)(c1ccccc1)c1ccccc1 in this test?
Result: 0.0

Problem: Which outcome was entered for the compound O=C1c2ccccc2N2Oc3ccccc3C12c1ccccc1 (stereo unspecified) in this test?
Result: 0.0

Problem: Which outcome was entered for the compound CCOC(=O)C(=O)NC12CC3CC(CC(C3)C1)C2 in this test?
Result: 0.0

Problem: Which outcome was entered for the compound C=C1C(=O)OC2/C=C(\CO)C(OC(C)=O)CC(O)/C(C)=C/C(OC(=O)C(C)CC)C12 (stereo unspecified) in this test?
Result: 0.0

Problem: Which outcome was entered for the compound Cc1ccc(S(=O)(=O)OC2CC=CC2)cc1 in this test?
Result: 0.0

Problem: Which outcome was entered for the compound C=CCCCn1ccc2ccccc21 in this test?
Result: 0.0

From: ChEMBL document CHEMBL1201862
